method-description: in vivo
condition-parameters: rat, in vivo, po, 4 mg/kg, pH 6.8
quantity: T1/2 (h)
Numbers only, in h.

Some entries whose results are on file:
>  <structure>
CNC[C@H](O)[C@@H](O)[C@H](O)[C@H](O)CO

>  <quantity>
T1/2

>  <numeric-readout>
3.02

$$$$
>  <structure>
[Mg]

>  <quantity>
T1/2

>  <numeric-readout>
3.01

$$$$

// each compound listed below needs its T1/2
1. [K+]
2. [Ca]

*A*
2.96
3.40

###

method-description: in vivo
condition-parameters: rat, in vivo, po, 4 mg/kg
quantity: AUClast (ng·h/mL)
Numbers only, in ng·h/mL.

>  <structure>
[Mg]

>  <quantity>
AUClast

>  <numeric-readout>
22909

$$$$

Could I get AUClast for every one of these entries?
1. [K+]
2. CNC[C@H](O)[C@@H](O)[C@H](O)[C@H](O)CO
3. [Ca]

*A*
10049
16995
26827
